Data credit: patent US20260226086A1

Record form. Attribute: Dmax at 1 µM. Fill in for each entry.
Target: STAT3 (Homo sapiens)
Construct: This cell line is a clone created by using CRISPR-Cas9 to fuse HiBiT to the 3′ end of STAT3 in HeLa cells; host or cells: STAT3-HiBiT KI HeLa cell line (CRISPR-Cas9 knock-in clone)
Experiment: HiBiT assay, STAT3 degradation in STAT3-HiBiT KI HeLa cells
Format: cell-based
Settings: 24 h, @1 μM
Procedure: STAT3 degradation may be determined by HiBiT assay. STAT3-HiBiT KI HeLa cell line, which is a clone created by using CRTISPR-Cas9 to fuse HiBiT to the 3′ end of STAT3 in HeLa cells, may be used for this assay. […] At the end of treatment, Nano-Glo HiBiT Lytic Detection reagents is added to the wells and luminescence is acquired on TECAN SPARK plate reader. […] IC50 values are calculated using a nonlinear regression analysis of the mean±SD from triplicate. […]

[[record]]
smiles_structure = "Cc1ncsc1-c1ccc([C@H](C)NC(=O)[C@@H]2C[C@@H](O)CN2C(=O)[C@@H](n2cc(CCc3cccc(OC[C@H](CCC(N)=O)NC(=O)[C@@H]4CC[C@@H]5CCN(C(=O)C(C)C)C[C@H](NC(=O)c6cc7cc(C(=O)P(=O)(O)O)ccc7[nH]6)C(=O)N54)c3Cl)nn2)C(C)(C)C)cc1"
system_under_test = "STAT3 (Homo sapiens)"
value_measured = "> 80%"

[[record]]
smiles_structure = "COCCOCCOCCOCCN1CC[C@H]2CC[C@@H](C(=O)N[C@@H](CCC(N)=O)COc3cccc(CCCc4cn([C@H](C(=O)N5C[C@H](O)C[C@H]5C(=O)N[C@@H](C)c5ccc(-c6scnc6C)cc5)C(C)(C)C)nn4)c3Cl)N2C(=O)[C@@H](NC(=O)c2cc3cc(C(=O)P(=O)(O)O)ccc3[nH]2)C1"
system_under_test = "STAT3 (Homo sapiens)"
value_measured = "> 80%"


Prompt: Quick one: Dmax at 1 µM of Cc1ncsc1-c1ccc([C@H](C)NC(=O)[C@@H]2C[C@@H](O)CN2C(=O)[C@@H](n2cc(CCCCC(=O)N3CC[C@H]4CC[C@@H](C(=O)N[C@@H](CCC(N)=O)C(=O)NC(c5ccccc5)c5ccccc5)N4C(=O)[C@@H](NC(=O)c4cc5cc(C(=O)P(=O)(O)O)ccc5[nH]4)C3)nn2)C(C)(C)C)cc1 ?
Completion: > 80%

###

I'd appreciate it if you could supply IC50 values for the items below.
Tested on: SUP-M2 cells
Assay: CellTiter-Glo 2.0 cell viability assay, SUP-M2
Type: cell-based
Settings: SUP-M2, 96 h, 4 days

Worked examples, 2 compounds total:
[[record]]
smiles_structure = "COCCOCCOCCOCCC(=O)N1CC[C@H]2CC[C@@H](C(=O)N[C@@H](CCC(N)=O)COc3cccc(CCCc4cn([C@H](C(=O)N5C[C@H](O)C[C@H]5C(=O)N[C@@H](C)c5ccc(-c6scnc6C)cc5)C(C)(C)C)nn4)c3Cl)N2C(=O)[C@@H](NC(=O)c2cc3cc(C(=O)P(=O)(O)O)ccc3[nH]2)C1"
measured_attribute = "IC50"
value_measured = "0.01 to 0.1 µM"

[[record]]
smiles_structure = "Cc1ncsc1-c1ccc([C@H](C)NC(=O)[C@@H]2C[C@@H](O)CN2C(=O)[C@@H](NC(=O)CCC(=O)N2CC[C@H]3CC[C@@H](C(=O)N[C@@H](CCC(N)=O)C(=O)NC(c4ccccc4)c4ccccc4)N3C(=O)[C@@H](NC(=O)c3cc4cc(C(=O)P(=O)(O)O)ccc4[nH]3)C2)C(C)(C)C)cc1"
measured_attribute = "IC50"
value_measured = "0.1 to 1 µM"


As a next step, examine the compound that follows.
Prompt: Which IC50 value belongs to CCS(=O)(=O)c1ccc(CNC(=O)[C@H](CCC(N)=O)NC(=O)[C@@H]2CC[C@@H]3CCN(C(=O)CCCCc4cn([C@@H](C(=O)N5C[C@H](O)C[C@H]5C(=O)N[C@H](C)c5ccc(-c6scnc6C)cc5)C5CCN(C)CC5)nn4)C[C@H](NC(=O)c4cc5cc(C(=O)P(=O)(O)O)ccc5[nH]4)C(=O)N32)cc1 ?
Completion: < 0.01 µM

###

Consider the following compounds; for each one, report its DC50.
Target: STAT3 (Homo sapiens, UniProt P40763)
Construct: This cell line is a clone created by using CRISPR-Cas9 to fuse HiBiT to the 3′ end of STAT3 in HeLa cells; host or cells: STAT3-HiBiT KI HeLa cell line (CRISPR-Cas9 knock-in clone)
Sequence (P40763 whole entry): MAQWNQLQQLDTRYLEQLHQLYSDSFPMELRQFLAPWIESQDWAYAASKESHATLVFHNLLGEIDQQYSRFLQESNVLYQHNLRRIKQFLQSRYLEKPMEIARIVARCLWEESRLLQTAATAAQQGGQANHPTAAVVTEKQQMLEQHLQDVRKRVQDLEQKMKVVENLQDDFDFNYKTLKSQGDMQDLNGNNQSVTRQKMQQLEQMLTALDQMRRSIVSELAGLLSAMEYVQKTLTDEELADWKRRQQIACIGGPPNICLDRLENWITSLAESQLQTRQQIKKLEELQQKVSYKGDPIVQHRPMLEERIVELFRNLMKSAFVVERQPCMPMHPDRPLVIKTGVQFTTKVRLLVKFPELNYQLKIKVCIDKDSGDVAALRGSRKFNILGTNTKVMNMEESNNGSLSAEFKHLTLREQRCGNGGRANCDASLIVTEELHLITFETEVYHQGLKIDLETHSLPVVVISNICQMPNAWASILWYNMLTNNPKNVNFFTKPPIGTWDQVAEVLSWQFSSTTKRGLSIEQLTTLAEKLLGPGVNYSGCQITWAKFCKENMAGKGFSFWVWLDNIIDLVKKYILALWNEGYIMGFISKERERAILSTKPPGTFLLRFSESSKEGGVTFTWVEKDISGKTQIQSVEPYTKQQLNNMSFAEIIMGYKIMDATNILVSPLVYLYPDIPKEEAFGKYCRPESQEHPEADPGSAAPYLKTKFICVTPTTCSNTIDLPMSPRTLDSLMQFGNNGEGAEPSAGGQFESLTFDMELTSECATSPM
Experiment: HiBiT assay, STAT3 degradation in STAT3-HiBiT KI HeLa cells
Format: cell-based
Details: 24 h, read-out: STAT3 Degradation (HeLa 24 h HiBit) DC50

Observe how each entry below is paired with its result.
[[record]]
compound = "COCCOCCOC[C@H](NC(=O)[C@@H]1C[C@@H](O)CN1C(=O)[C@@H](n1cc(CCCc2cccc(OC[C@H](CCC(N)=O)NC(=O)[C@@H]3CC[C@@H]4CCN(C(C)=O)C[C@H](NC(=O)c5cc6cc(C(=O)P(=O)(O)O)ccc6[nH]5)C(=O)N43)c2Cl)nn1)C(C)(C)C)c1ccc(-c2scnc2C)cc1 [Compound 41]"
measured_attribute = "DC50"
value_measured = "10 to 100 nM"

[[record]]
compound = "CC(=O)N1CC[C@H]2CC[C@@H](C(=O)N[C@@H](CCC(N)=O)COc3cccc(CCCc4cn([C@H](C(=O)N5C[C@H](O)C[C@H]5C(=O)N[C@@H](CCN5CCOCC5)c5ccc(-c6scnc6C)cc5)C(C)(C)C)nn4)c3Cl)N2C(=O)[C@@H](NC(=O)c2cc3cc(C(=O)P(=O)(O)O)ccc3[nH]2)C1"
measured_attribute = "DC50"
value_measured = "10 to 100 nM"

[[record]]
compound = "Cc1ncsc1-c1ccc([C@H](C)NC(=O)[C@@H]2C[C@@H](O)CN2C(=O)[C@@H](NC(=O)CCC(=O)N2CC[C@H]3CC[C@@H](C(=O)N[C@@H](CCC(N)=O)C(=O)NC(c4ccccc4)c4ccccc4)N3C(=O)[C@@H](NC(=O)c3cc4cc(C(=O)P(=O)(O)O)ccc4[nH]3)C2)C(C)(C)C)cc1"
measured_attribute = "DC50"
value_measured = "100 to 1000 nM"


Prompt: # lookup: DC50 of Cc1ncsc1-c1ccc([C@H](C)NC(=O)[C@@H]2C[C@@H](O)CN2C(=O)[C@@H](n2cc(CCCCC(=O)N3CC[C@H]4CC[C@@H](C(=O)N[C@@H](CCC(N)=O)COc5cccc(Cl)c5)N4C(=O)[C@@H](NC(=O)c4cc5cc(C(=O)P(=O)(O)O)ccc5[nH]4)C3)nn2)C(C)(C)C)cc1
Completion: 10 to 100 nM

###

Consider the following molecules; for each one, report its DC50.
Molecular target: STAT3 (Homo sapiens)
Construct: This cell line is a clone created by using CRISPR-Cas9 to fuse HiBiT to the 3′ end of STAT3 in HeLa cells; host or cells: STAT3-HiBiT KI HeLa cell line (CRISPR-Cas9 knock-in clone)
Experiment: HiBiT assay, STAT3 degradation in STAT3-HiBiT KI HeLa cells
Type: cell-based
Settings: 24 h, read-out: STAT3 Degradation (HeLa 24 h HiBit) DC50

[[record]]
molecule = "Cc1ncsc1-c1ccc([C@H](C)NC(=O)[C@@H]2C[C@@H](O)CN2C(=O)[C@@H](NC(=O)CCCCCCCC(=O)N2CC[C@H]3CC[C@@H](C(=O)N[C@@H](CCC(N)=O)C(=O)NC(c4ccccc4)c4ccccc4)N3C(=O)[C@@H](NC(=O)c3cc4cc(C(=O)P(=O)(O)O)ccc4[nH]3)C2)C(C)(C)C)cc1"
measured_attribute = "DC50"
value_measured = "100 to 1000 nM"

[[record]]
molecule = "CCS(=O)(=O)c1ccc(CNC(=O)[C@H](CCC(N)=O)NC(=O)[C@@H]2CC[C@@H]3CCN(C(=O)CCCCc4cn([C@H](C(=O)N5C[C@H](O)C[C@H]5C(=O)N[C@@H](C)c5ccc(-c6scnc6C)cc5)C(C)(C)C)nn4)C[C@H](NC(=O)c4cc5cc(C(=O)P(=O)(O)O)ccc5[nH]4)C(=O)N32)cc1"
measured_attribute = "DC50"
value_measured = "< 10 nM"

[[record]]
molecule = "CCS(=O)(=O)c1ccc(CNC(=O)[C@H](CCC(N)=O)NC(=O)[C@@H]2CC[C@@H]3CCN(C(=O)CCCCCc4cn([C@H](C(=O)N5C[C@H](O)C[C@H]5C(=O)N[C@@H](COCCOCCOC)c5ccc(-c6scnc6C)cc5)C(C)(C)C)nn4)C[C@H](NC(=O)c4cc5cc(C(=O)P(=O)(O)O)ccc5[nH]4)C(=O)N32)cc1 [Compound 26]"
measured_attribute = "DC50"
value_measured = "< 10 nM"

[[record]]
molecule = "Cc1ncsc1-c1ccc([C@H](C)NC(=O)[C@@H]2C[C@@H](O)CN2C(=O)[C@@H](n2cc(CCCCCC(=O)N3CC[C@H]4CC[C@@H](C(=O)N[C@@H](CCC(N)=O)C(=O)NC(c5ccccc5)c5ccccc5)N4C(=O)[C@@H](NC(=O)c4cc5cc(C(=O)P(=O)(O)O)ccc5[nH]4)C3)nn2)C(C)(C)C)cc1"
measured_attribute = "DC50"
value_measured = "> 1000 nM"

[[record]]
molecule = "Cc1ncsc1-c1ccc([C@H](C)NC(=O)[C@@H]2C[C@@H](O)CN2C(=O)[C@@H](n2cc(CCCCC(=O)N3CC[C@H]4CC[C@@H](C(=O)N[C@@H](CCC(N)=O)C(=O)NC(c5ccccc5)c5ccccc5)N4C(=O)[C@@H](NC(=O)c4cc5cc(C(=O)P(=O)(O)O)ccc5[nH]4)C3)nn2)C(C)(C)C)cc1 [Compound 57]"
measured_attribute = "DC50"
value_measured = "100 to 1000 nM"


List the reported DC50 of each molecule below.
1. CC(=O)N1CC[C@H]2CC[C@@H](C(=O)N[C@@H](CCC(N)=O)COc3cccc(CCCc4cn([C@H](C(=O)N5C[C@H](O)C[C@H]5C(=O)N[C@@H](CN5CCOCC5)c5ccc(-c6scnc6C)cc5)C(C)(C)C)nn4)c3Cl)N2C(=O)[C@@H](NC(=O)c2cc3cc(C(=O)P(=O)(O)O)ccc3[nH]2)C1
2. Cc1ncsc1-c1ccc([C@H](C)NC(=O)[C@@H]2C[C@@H](O)CN2C(=O)[C@@H](NC(=O)CCCC(=O)N2CC[C@H]3CC[C@@H](C(=O)N[C@@H](CCC(N)=O)C(=O)NC(c4ccccc4)c4ccccc4)N3C(=O)[C@@H](NC(=O)c3cc4cc(C(=O)P(=O)(O)O)ccc4[nH]3)C2)C(C)(C)C)cc1

Completion:
1: 10 to 100 nM; 2: 10 to 100 nM
